Assay Explanation: Quantitative highthroughput screen to assess conditional lethalithy of SEM cells grown in RPMI1640 with unreated serum (RPMI+s) (AID 1963883); also: nearly all actives have a fitted effect of over 35% in size; also: potency is read from the fitted curve at half-maximal effect;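 as to viability: 100% = DMSO wells and 0% = empty wells without cells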
Condition Details: SEM B-ALL cells, CellTiter-Glo viability, 48 h; series mostly up to 45.8 µM
Results filed as inconclusive are left out. The source made the active and inactive calls. Calls follow the shape of the dose curve; as a rule, active = well fitted cell-killing curve with a large enough effect; inconclusive = small, poorly fitted or top-dose-only effect, or effect the other way; inactive = no such curve, though single readings can be large or run the other way.
Metric: Potency

{"Molecule": "C[C@H]1[C@@H](OC(=O)CCC(=O)O)O[C@@H]2O[C@@]3(C)CC[C@@H]4[C@H](C)CC[C@@H]1[C@@]24OO3", "Potency": "3720 nM (active)"}
{"Molecule": "C#CCC(Cc1cnc2nc(N)nc(N)c2n1)c1ccc(C(=O)N[C@@H](CCC(=O)O)C(=O)O)cc1 (some centres undefined)", "Potency": "59 nM (active)"}
{"Molecule": "O=C(Nc1ncc(-c2cc(C(F)F)nn2-c2c(Cl)cccc2Cl)s1)C1CC1", "Potency": "1180 nM (active)"}
{"Molecule": "O=C(O)CCCc1c[nH]c2ccccc12", "Potency": "inactive"}
{"Molecule": "Cn1cc(-c2ccc3ncc(Cc4ccc5ncccc5c4)n3n2)cn1", "Potency": "9350 nM (active)"}
{"Molecule": "Cc1cc(CN2CCN(c3c(Br)cnc4nc(-c5ccc(N6CCN(C)CC6)cc5)[nH]c34)CC2)no1", "Potency": "743 nM (active)"}
{"Molecule": "O=c1cc(-c2ccc(O)c(O)c2)oc2cc(O)cc(O)c12", "Potency": "inactive"}
{"Molecule": "O=C1NC(=O)C(=Cc2ccc3nccc(-c4ccncc4)c3c2)S1", "Potency": "935 nM (active)"}
{"Molecule": "COc1ccnc2[nH]cc(C(=O)C(=O)N3CCN(C(=O)c4ccccc4)C[C@@H]3C)c12", "Potency": "inactive"}
{"Molecule": "COCCOc1nc(-c2ccc(Cl)c(Cl)c2)n(-c2ccc(NC(=O)CCl)cc2)n1", "Potency": "inactive"}

Provide each entry's Potency from the list below.
1. CC(C)NC[C@@H](C(=O)N1CCN(c2ncnc3c2[C@H](C)C[C@H]3O)CC1)c1ccc(Cl)cc1
2. COc1ccc(-c2ccc3c(N4CCOCC4)nc(N4C[C@@H](C)O[C@@H](C)C4)nc3n2)cc1CO
3. Cc1ccnc(NS(=O)(=O)c2ccc(NC(=O)Nc3ccc(S(=O)(=O)Nc4nccc(C)n4)cc3)cc2)n1
4. Cc1c(-c2ccnn2C)cc(C(=O)NCc2ccc(S(C)(=O)=O)cn2)c(=O)n1-c1cccc(C(F)(F)F)c1
5. CC(C)c1ccc2c(c1)c(SC(C)(C)C)c(CC(C)(C)C(=O)O)n2Cc1ccc(Cl)cc1
6. CC(C)(C)NC(=O)Nc1cccc(Nc2ncc(F)c(NC(C)(C)CO)n2)c1
7. Cc1nc2n(c(=O)c1CCN1CCC(c3noc4cc(F)ccc34)CC1)CCCC2

Data returned:
1. 296 nM (active)
2. 1870 nM (active)
3. 83.3 nM (active)
4. inactive
5. inactive
6. 7430 nM (active)
7. inactive

For each listed entry, give its Potency.
1. OCCn1cc(-c2ccc3c(c2)CCC3=NO)c(-c2ccncc2)n1
2. O=C(O)C(=O)Nc1cccc(C2=NN=N[N]2)c1

Data returned:
["inactive", "inactive"]

###

Assay Explanation: Quantitative highthroughput screen to assess conditional lethalithy of SEM cells grown in RPMI1640 with dialyzed fetal bovine serum (RPMI+ds) (AID 1963884); also: potency is read from the fitted curve at half-maximal effect; nearly all actives have a fitted effect of over 35% in size
Condition Details: SEM B-ALL cells, RPMI+dialyzed FBS, CellTiter-Glo viability, 48 h; series mostly up to 45.8 µM
Inconclusive results are not listed. Activity calls are given as the source filed them. Calls come from the whole dose curve; as a rule, active = well fitted cell-killing curve with a large enough effect; inconclusive = small, poorly fitted or top-dose-only effect, or effect the other way; inactive = no such curve, though single readings can be large or run the other way.
A correct response names exactly one class from yes for active, no for inactive

{"Molecule": "Cc1cc(Nc2nc(N[C@@H](C)c3ccc(F)cc3)c(C#N)cc2F)n[nH]1", "Label Class": "yes"}
{"Molecule": "CNc1nc(Nc2cnn([C@H]3CCN(C4COC4)C[C@@H]3F)c2Cl)ncc1C(F)(F)F", "Label Class": "yes"}
{"Molecule": "NC(=O)C1CCCc2c1[nH]c1ccc(Cl)cc21 (stereo not given)", "Label Class": "yes"}

Switching to the query record.
Data request: Would you mind telling me which call this test gave CC[C@@]1(O)C(=O)OCc2c1cc1n(c2=O)Cc2cc3c(CN(C)C)c(O)ccc3nc2-1 ?
Data returned: yes

###

Assay Explanation: Cellular viability qHTS for adrenocortical cancer (ACC) cell line SW-13 (AID 1963989);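 also: cells grown in serum-free medium with ITS supplement; % is scaled to controls: 0 for no effect and ±100 for the full control effect; nearly all actives have a fitted effect of over 65% in size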
Condition Details: SW-13 ACC cells viability, CellTiter-Glo, 48 h; stronger effect = lower value
From the text: PI: Naris Nilubol, MD Surgical Oncology Program, National Cancer Institute (NCI) National Institute of Health (NIH), Bethesda, Maryland Adrenocortical cancer (ACC) is a rare malignancy with poor survival outcomes and few treatment options. Currently, mitotane is the only FDA-approved therapy for ACC. […] Through a quantitative high-throughput drug screen (qHTS), we identified auranofin (AF), a thioredoxin reductase (TXNRD) inhibitor, as a promising candidate drug. […]
Records with an inconclusive call do not appear. Where a SMILES comes first, the peptide text is derived from it. Bridges are numbered along the chain shown (N, C = ends). [ ]: non-standard residue; d: D form. hArg = N=C(N)NCCCC[C@H](N)C(=O)O; Mpa = O=C(O)CCS
Task for the reader: assign each of the following compounds its reported activity (max response).
Give bare numbers, in %.

Solved cases below.
{"Compound": "CNc1c2c(nn1C)CCCC2", "Experimental Result": -0.416}
{"Compound": "Cc1nc2c([nH]1)CCN(C(=O)c1ccc(NC(=O)c3ccccc3-c3ccccc3)cc1)c1ccccc1-2", "Experimental Result": -19.1}
{"Compound": "CN1C(C)(C)CCCC1(C)C", "Experimental Result": -4.6}
{"Compound": "NC(=O)[C@@H]1CSSCCC(=O)N[C@@H](CCCCN=C(N)N)C(=O)NCC(=O)N[C@@H](CC(=O)O)C(=O)N[C@@H](Cc2c[nH]c3ccccc23)C(=O)N2CCC[C@H]2C(=O)N1 ([Mpa][hArg]GDWPC-NH2; disulfide 1-7)", "Experimental Result": 17.5}
{"Compound": "Cc1cc(O)cc2c1[C@]1(C)CC[C@H]3C(C)(C)CCC[C@]3(C)[C@H]1C2", "Experimental Result": -14}

Provide activity (max response) for all items below, preserving their order.
1. CCCCCCCCCCCC(CC1OC(=O)C1CCCCCC)OC(=O)C(CC(C)C)NC=O (stereo unspecified)
2. CCOc1ccc2nc(S(N)(=O)=O)sc2c1
3. COc1cc(Oc2ccnc3cc(OC)c(OC)cc23)ccc1NC(=O)NC(C)c1nccs1 (stereo unspecified)
4. O=C(O)/C=C\C(=O)O
5. O=C(CN1CCN(Cc2ccc3c(c2)OCO3)CC1)N1c2ccccc2Sc2ccccc21

Data returned:
[11.6, -20.8, 0.628, 6.23, -10.1]

Each of the following entries comes with a recorded value; kindly state activity (max response) for each.
1. COc1ccccc1OCC1CNC(=O)O1 (stereo unspecified)
2. Cc1scc2c1N(C(=O)CN1CCN(C)CC1)c1ccccc1NC2=O
3. CC[C@@H](C)[C@H](NC(=O)[C@H](CC1CCCCC1)NC(=O)c1ccno1)C(=O)N1CCC2(CCc3ccccc32)CC1
4. CCCNC(=O)c1cn2ncnc(Nc3cc(C(=O)NC4CC4)ccc3C)c2c1C
5. CN(C)[C@@H]1C(=O)C(C(N)=O)=C(O)[C@@]2(O)C(=O)C3=C(O)c4c(O)ccc(Cl)c4[C@@H](O)[C@H]3C[C@@H]12
6. O=C(O)CCCc1c[nH]c2ccccc12
7. NC(N)=NC(N)=NCCc1ccccc1

Data returned:
12.9
2.88
-1.23
7.33
-3.2
1.46
-8.99

For each entry beneath this line, provide reported activity (max response).
1. Cc1ccc(CCn2c3c(c4cc(Cl)ccc42)CN(C)CC3)cn1
2. CC(=O)Nc1ccc(OCCOCCOc2ccc(NC(C)=O)cc2)cc1
3. CCCCCCCCCCCCCCCCCCOCC(O)CO (stereo unspecified)
4. Cn1cc(-c2ccc3nnc(Sc4ccc5ncccc5c4)n3n2)cn1

Data returned:
1: -12.3; 2: -7.42; 3: 15; 4: -4.92

###

Assay Explanation: Quantitative highthroughput screen to assess conditional lethalithy of NOMO1 cells grown in RPMI1640 with dialyzed fetal bovine serum (RPMI+ds) (AID 1963877); also: nearly all actives have a fitted effect of over 30% in size;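 as to viability: 100% = DMSO control wells and 0% = empty wells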
Condition Details: NOMO1 in RPMI+dialyzed FBS viability, ATP luminescence, 48 h; series mostly up to 45.8 µM
Records with an inconclusive call do not appear. Active and inactive are the calls of the source. The call rests on the fitted dose curve; in most records, active means well fitted cell-killing curve with a large enough effect; inconclusive means small, poorly fitted or top-dose-only effect; inactive means flat fitted curve, though single readings scatter.
Entry note: the call must match one of true for active, false for inactive

Study these solved cases before continuing.
{"Molecule": "C[C@@H](O)[C@H]1C(=O)N2C(C(=O)OCOC(=O)C(C)(C)C)=C(SC3CN(C4=NCCS4)C3)[C@H](C)[C@H]12", "Label Class": "true"}
{"Molecule": "Clc1cccc(-n2nnnc2NCc2ccccc2Oc2ccccn2)c1Cl", "Label Class": "false"}
{"Molecule": "CCOC(=O)N1CCN([N+]([O-])=NOc2cc(ON=[N+]([O-])N3CCN(C(=O)OCC)CC3)c([N+](=O)[O-])cc2[N+](=O)[O-])CC1", "Label Class": "false"}
{"Molecule": "O=C(O)[C@H]1O[C@H](Oc2cc3oc(-c4ccccc4)cc(=O)c3c(O)c2O)[C@H](O)[C@@H](O)[C@H]1O", "Label Class": "false"}

Data request: For this compound, state the assay outcome: Cc1cccc(C#Cc2ccccc2)n1
Data returned: false
